System: NCI-H23
Test: NCI tumour cell line growth inhibition, 48 h
Calls of active or inactive are those of the source. Cut-off read from the data, not from the text of the source: active = GI50 up to about 1.1 µM and inactive = higher. Where a SMILES comes first, the peptide text is derived from it. [ ]: non-standard residue; d: D form. The star is where a group is joined. ξ: configuration not given here. X38 = O=C(OCc1ccccc1)[C@@H]1CCC[C@H]1N*; Fmoc = O=C(OCC1c2ccccc2-c2ccccc21)*; ξW = NC(Cc1c[nH]c2ccccc12)C(=O)O; ξF = NC(Cc1ccccc1)C(=O)O; Boc = CC(C)(C)OC(=O)*; ξK = NCCCCC(N)C(=O)O; ξT = CC(O)C(N)C(=O)O; tBu = CC(C)(C)*
Could you please pick one outcome from this set? 1 for active, 0 for inactive

### Prompt Could you kindly confirm the outcome this assay logged for O=C(O)c1cc(C(=O)O)nc(C(=O)O)c1 ?
### Response 0

### Prompt Hi, do you know how Cc1c(S(=O)(=O)O)ccc(/N=N/c2c(O)c(C(=O)O)cc3ccccc23)c1Cl came out in this test?
### Response 0

### Prompt Assay outcome for Cc1c(C)c(C)c(-n2c(=O)n(C)c(=O)n2-c2cc(C(C)(C)C)cc(C(C)(C)C)c2O)c(C)c1C : what was it?
### Response 0

### Prompt Recorded test call requested for COc1cc(C2c3cc4c(cc3OC(N3CCNCC3)C2C)OCO4)cc(OC)c1OC (stereo not given)
### Response 1

### Prompt So what was the verdict on Clc1cc(OCC23CC4CC(CC(C4)C2)C3)nc(OCC23CC4CC(CC(C4)C2)C3)n1 in this test?
### Response 0

### Prompt Fill in: this test's call for O=c1cc(-c2ccccc2)[nH]c2ccc(N3CCOCC3)cc12 is ___
### Response 1

### Prompt I'd appreciate the recorded outcome for CC(C)(C)c1cc(OCc2nnc3sc(Cc4ccccc4)nn23)c(Cl)cc1OCc1nnc2sc(Cc3ccccc3)nn12 from this test.
### Response 0

### Prompt Field: outcome | Entry: COC1=CC(=O)C2C(C1=O)[C@@H]1c3ccccc3C[C@H]21 (stereo not given in full)
### Response 0

### Prompt Recorded call for CC(OC(C)(C)C)C(NC(=O)C(CCCCNC(=O)OC(C)(C)C)NC(=O)C(Cc1c[nH]c2ccccc12)NC(=O)C(Cc1ccccc1)NC(=O)OCC1c2ccccc2-c2ccccc21)C(=O)NC(Cc1ccccc1)C(=O)N[C@@H]1CCC[C@H]1C(=O)OCc1ccccc1 (stereo not given in full) (Fmoc-[ξF][ξW][ξK](Boc)[ξT](tBu)[ξF]-X38) ?
### Response 0

### Prompt Kindly provide the recorded test outcome for the following molecule: COc1cc(N(CCC#N)CCC#N)ccc1/C=C1\SC(=S)NC1=O
### Response 0

### Prompt I'd appreciate the recorded outcome for O=C(O)/C(Cl)=C(\Cl)C(=O)Nc1ccc(Cl)c(Cl)c1Cl from this test.
### Response 0

### Prompt Could you please tell me the result logged for C/C(=N/NC(=O)C[n+]1ccccc1)C(CN(CC(C)C)CC(C)C)C(=O)Nc1ccc(C)cc1C (stereo not given) in this assay?
### Response 0

### Prompt What outcome does the record of this test show for O=C(OC1CC(n2cc(F)c(=O)[nH]c2=O)OC1CSC(=O)c1ccccc1)c1ccccc1 (stereo not given) ?
### Response 0

### Prompt I'd appreciate the recorded outcome for CSc1nc(O)c(C#N)c(-c2ccc(Cl)cc2)n1 from this test.
### Response 0

### Prompt Hey, what did the test say about CN(C)c1ccc(C2=C([O-])c3cc(-[n+]4ccccc4)ccc3C2=O)cc1 ?
### Response 0

### Prompt Test call, this molecule: COc1cccc(/C(Cl)=C(\C=O)c2cccc(OC)c2)c1
### Response 0

### Prompt Which outcome was assigned to Cc1cccc(/C=N/NC(=S)NCCc2ccccn2)n1 in this test?
### Response 0

### Prompt # lookup: test call for CC(=O)NNc1nc(C)c(C(/C=C/c2ccc([N+](=O)[O-])cc2)=N/N)s1
### Response 0

### Prompt Per the assay record, what outcome was assigned to Cc1c(/C=N/NC(=S)Nc2ccc([N+](=O)[O-])cc2)c(=O)n(-c2ccccc2)n1C ?
### Response 0

### Prompt What call does the record list for CNC(=S)N1CCN(C(C)=O)C1=S ?
### Response 0

### Prompt Each molecule tested received a call. Report the one for C=CCn1c(=O)c2ccccc2[n+]2c(-c3cccc([N+](=O)[O-])c3)csc12 .
### Response 0

### Prompt What classification did COc1ccc(C2=NNC(=O)c3ccccc3N2c2nc(-c3cccs3)nc3ccc(Br)cc23)cc1 end up with in this test?
### Response 0

### Prompt Please indicate how the test categorized CNC(=O)/C(C#N)=C(\N)N1CCCC1 .
### Response 0

### Prompt Could you kindly confirm the outcome this assay logged for COc1ccc(OC)c2c(C(=O)O)c(C(C)c3ccccc3)ccc12 (stereo not given) ?
### Response 0

### Prompt Call for entry CCN(CC)c1cccc2c1/C(=N/O)CCCC2 :
### Response 0

### Prompt I would be grateful if you could indicate the recorded call for COc1cc(Br)c(/C=N\c2cccc3ccc(OS(=O)(=O)c4cccc([N+](=O)[O-])c4)cc23)cc1OC .
### Response 0

### Prompt Query: recorded result category for Cn1c2ccccc2c(=O)c2c(O)cc3c(c21)C=CC1(CCCC1)O3 in this test
### Response 0

### Prompt Record lookup: outcome of this test for c1ccc([P+](CCN2Cc3ccccc3C2)(c2ccccc2)c2ccccc2)cc1 ?
### Response 0

### Prompt Recorded test outcome, item COC(=O)[C@@H]1c2c(oc3cc(CO)cc(O)c3c2=O)C=C[C@H]1O
### Response 0

### Prompt In this assay, the call recorded for CN(C)c1nc2oc(-c3ccccc3)c(-c3ccccc3)c2c2nnnn12 was what?
### Response 0

### Prompt Hi team, can someone confirm the assay call for COC12CCC(C(C(=O)c3ccccc3)=C1C(=O)c1ccccc1)C(O)C2 (stereo not given) ?
### Response 0

### Prompt Please let me know the test result on file for Cc1ccc(C(=O)NC2CCCCC2)cc1/N=N/N(C)C .
### Response 0

### Prompt So what was the verdict on Cc1cc(=O)n2c3c(c4c(cc13)c(CN(C)C)cc(=O)n4C)OC2 in this test?
### Response 0

### Prompt State the result this test recorded for O=C(/C=C/c1cccs1)c1cccc(C(=O)/C=C/c2cccs2)n1 .
### Response 0

### Prompt Hi, do you know how CSc1c(C(=O)Nc2ccc(Cl)cc2)c(N)n(N)c(=O)c1C#N came out in this test?
### Response 0

---

System: NCI-H23
Experiment: NCI tumour cell line growth inhibition, 48 h
Calls of active or inactive are those of the source. Rule as the data show it: active = GI50 up to about 1.1 µM and inactive = higher.
Hi there, use one of these labels in your reply, thanks! active, inactive

### Prompt # lookup: test call for OCC12C3C4C5C3C1C5C42 (configuration not stated)
### Response inactive

### Prompt What did this assay record as the result for CC(C)(C)C1=CC(=NNC(=S)NCc2ccccc2)C=C(C(C)(C)C)C1=O ?
### Response inactive

### Prompt Check the results log: what was the call for O=[N+]([O-])c1ccc(N2N=C(c3ccc(NCc4nc5ccccc5[nH]4)cc3)CC2c2ccco2)cc1 (configuration not stated) ?
### Response inactive

### Prompt State the result this test recorded for c1ccc(C(CCN2CCCC2)c2ccccn2)cc1 (configuration not stated) .
### Response inactive

### Prompt Dear colleague, could you share the recorded outcome for CCCCSC1CCSc2c1ccc1ccccc21 (configuration not stated) when you have a moment?
### Response inactive

### Prompt How did this test come out for N=C1c2ccccc2C(=O)c2c(NCCNCCO)ccc(O)c21 ?
### Response inactive

### Prompt Tell me the recorded outcome of this test for C[C@@H]1O[C@@H](O[C@H]2CC[C@]3(C=O)[C@H]4CC[C@]5(C)[C@@H](C6=CC(=O)OC6)CC[C@]5(O)[C@@H]4CC[C@]3(O)C2)[C@H](O)[C@H](O)[C@H]1O .
### Response active

---

Test system: NCI-H460
Assay: NCI tumour cell line growth inhibition, 48 h
Activity calls are given as the source filed them. Cut-off read from the data, not from the text of the source: active = GI50 up to about 1.1 µM and inactive = higher.
readout_type: GI50

### Prompt Tell me the measured GI50 of O=c1cc(-c2ccccc2)oc2cc(OCC(O)COc3ccc4c(=O)cc(-c5ccccc5)oc4c3)ccc12 , please.
### Response 40.3 µM (inactive)

### Prompt Would you mind telling me what GI50 value was observed for O=c1cc(-c2ccccc2)[nH]c2ccc(N3CCOCC3)cc12 ?
### Response 0.0465 µM (active)

### Prompt If you can, please state the reported GI50 value of Cc1cc2c(=O)cc(-c3ccc(C(=O)O)cc3)oc2c(C(=O)O)c1C .
### Response > 100 µM (inactive)

### Prompt Request the reported GI50 associated with O=c1[nH]ccc(CNC23CC4CC(CC(C4)C2)C3)c1O
### Response 79.3 µM (inactive)

### Prompt Consider the molecule C[n+]1c(-c2ccc(/C=N/NC(=N)N/N=C/c3ccc(-c4cn5cc(Cl)ccc5[n+]4C)cc3)cc2)cn2cc(Cl)ccc21 and give its measured GI50.
### Response > 100 µM (inactive)

### Prompt Entry under review: O=C1N=C(S)NNC12c1ccccc1-c1ccccc12 . Reported GI50?
### Response 5.42 µM (inactive)

### Prompt Recorded GI50 of COC(=O)[C@@]12C3=NO[C@]1(C(=O)OC)C(O[Si](C)(C)C(C)(C)C)[C@@H](OC(C)=O)[C@@H](OC(C)=O)[C@@H]2[C@@H](OCc1ccccc1)CC3 (some centres undefined) , please.
### Response 3.59 µM (inactive)

### Prompt For the molecule shown here, CCN(CC)Cc1cc(Nc2c3ccccc3nc3c4ccccc4n(C)c23)ccc1O , give the reported GI50.
### Response 7.91 µM (inactive)

### Prompt Look up GI50: Cc1ccc2c(c1)C/C(=C\c1ccccc1C(=O)O)C2=O
### Response > 100 µM (inactive)

### Prompt Field request: GI50 | item: COc1ccc2oc3cccc(NCCN(C)C)c3c(=O)c2c1
### Response 8.83 µM (inactive)

### Prompt So what's the measured GI50 for this one? CC(=O)O[C@H]1C[C@H]2[C@@H](OC(C)=O)/C=C3\C[C@](C)(C(=O)[C@H](O)C(=C1C)C2(C)C)[C@@H](O)C[C@@H]3OC(=O)[C@H](O)[C@H](c1ccccc1)N(C)C
### Response > 100 µM (inactive)

### Prompt Give its GI50 value. Item: CC(C)=NOC(=O)Nc1cccc2c1OCO2
### Response > 100 µM (inactive)

### Prompt Report GI50 for CCC(=O)O[C@H]1CC[C@H]2[C@@H]3CCC4=C/C(=N/OC(=O)c5cccc6cc7ccccc7nc56)CC[C@]4(C)[C@H]3CC[C@]12C please.
### Response 39.1 µM (inactive)

### Prompt Would you mind telling me what GI50 value was observed for COc1ccc(-c2c(C#N)c(N)nc(Sc3ccccc3N)c2C#N)cc1 ?
### Response 19 µM (inactive)

Source: ChEMBL document CHEMBL1201862
